Below, each entry is listed alongside its reported AC50.
Measurement target: Cytochrome P450 3A4 (Homo sapiens, UniProt P08684);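 note: CYP3A4 tested as one member of a cytochrome P450 panel screen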
Sequence (P08684 whole entry): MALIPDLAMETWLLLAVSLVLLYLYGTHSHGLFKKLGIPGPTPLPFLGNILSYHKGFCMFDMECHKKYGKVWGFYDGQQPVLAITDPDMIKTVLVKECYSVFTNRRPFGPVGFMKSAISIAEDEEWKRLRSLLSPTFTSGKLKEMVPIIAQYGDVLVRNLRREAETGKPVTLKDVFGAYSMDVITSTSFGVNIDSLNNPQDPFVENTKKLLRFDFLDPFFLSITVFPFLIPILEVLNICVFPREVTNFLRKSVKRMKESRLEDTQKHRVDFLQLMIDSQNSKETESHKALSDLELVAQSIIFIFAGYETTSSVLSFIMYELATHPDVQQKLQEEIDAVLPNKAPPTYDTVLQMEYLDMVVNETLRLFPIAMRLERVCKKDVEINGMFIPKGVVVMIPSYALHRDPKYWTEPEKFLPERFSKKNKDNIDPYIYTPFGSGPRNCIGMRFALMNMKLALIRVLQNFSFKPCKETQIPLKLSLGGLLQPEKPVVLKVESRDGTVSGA

Form entry - test system: Cytochrome P450 3A4 (Homo sapiens, UniProt P08684); read-out: AC50; molecule: OC1(c2ccc(OC(F)F)cc2)CS/C(=N\c2cccnc2)N1C1CC1 (stereo unspecified) 0.794 µM (inconclusive)

For Cytochrome P450 3A4 (Homo sapiens, UniProt P08684), provide AC50 of CC(=O)OC[C@@H]1O[C@H](C/C=N\O[C@@H](C)CN2CCCc3nc(C)c(C)cc32)C=C[C@@H]1OC(C)=O please. 3.98 µM (inconclusive)

Param readout= AC50; system= Cytochrome P450 3A4 (Homo sapiens, UniProt P08684); entry= CC(=O)Nc1c(C(=O)N2CCOCC2)cnn1-c1ccc(C)c(C)c1 ; returns value. 3.98 µM (inconclusive)

GET /values?readout=AC50&system=Cytochrome P450 3A4 (Homo sapiens, UniProt P08684)&item= Cc1noc(C)c1-c1nccc(N(C)C)n1 31.6 µM (inconclusive)

Give the reported AC50 for CCN1CCN(c2nn3c(=O)c4ccccc4nc3c3ccccc23)CC1 (system: Cytochrome P450 3A4 (Homo sapiens, UniProt P08684)). 20 µM (inconclusive)

Give recorded AC50 with Cytochrome P450 3A4 (Homo sapiens, UniProt P08684) for the following molecule: O=c1cnc2cnc(Nc3ccccc3)nc2n1C1CC1 25.1 µM (inconclusive)
